- Tested on: MS2 coat protein
- Test: apparent KD of MS2 coat protein; designed switch direction (-1 OFF switch, 1 ON switch): 1; higher = weaker reporter binding
- Measurement Conditions: input ligand: none
Threshold rule: apparent KD of MS2 coat protein greater than or equal to 70 nM is class 1; below that, class 0.

{"Primary Sequence": "GAGGGCGAAAGCAACAUGAGGAUCACCCAUGUCCUCGGAGGUCAGGAUAUCCGGCGGUAGCCGAAGGAGAAGGGACGGUGAACC [AK SSNG3-V2-32.1] (Eterna round: R96, puzzle: Same State NG 3)", "Discrete Label": "class 1"}
{"Primary Sequence": "UUAAUGAUGAUAGGAUAUACAUGAGGAAUCCUCGUAGAAGGAUCAUGACAUGAGGAUCACCCAUGUAACGCUCCGUAGAGCGUA [JL SSNG1 1.16] (Eterna round: R96, puzzle: Same State NG 1)", "Discrete Label": "class 1"}
{"Primary Sequence": "AAAGAAAAACUAGAGGAUAUCCGAGUGGUAACAUGAGGAUCACCCAUGUGAUGAAAGGAACAUGAGGAGAAGGCUAGAAGAAAAA [JL Nando mod 8] (Eterna round: R96, puzzle: Same State 2)", "Discrete Label": "class 0"}
{"Primary Sequence": "GGAAUAUGAUGUUACAUGAGGAUCACCCAUGUAGUAAUAACUAAGGAUAUCUGUUAUGAUUAAUAAGAGAAGGUAGGAUCAUAA [AK SSNG3-V2-9] (Eterna round: R96, puzzle: Same State NG 3)", "Discrete Label": "class 0"}
{"Primary Sequence": "GAAAAACAUGAGGAUCACCCAUGUGAGAAUAUGGGAGGAUAUUCAAAGACGAAAGUCAAAGAAGAAGGCCUAAAAG [Mat - Same State 1 - Eli mod - 37] (Eterna round: R96, puzzle: Same State 1)", "Discrete Label": "class 1"}
{"Primary Sequence": "UUUUUGAUCCGAGGAUAUCCUUUUUUCUUACAUGAGGAUCACCCAUGUAAAGGGAUUGAGUUGUAGGAGAAGGCGGUUUUUUUU [JR_SSNG2_Sub060] (Eterna round: R96, puzzle: Same State NG 2)", "Discrete Label": "class 0"}
{"Primary Sequence": "CUAAACAGAGGAGGAUAUGCAGAGGAUCACCCUGUAGAAGGCCACAGAGGAGGAUAUGCAGAGGAUCACCCUGUAGAAGGCCAC [pwkr ssNG DX.7] (Eterna round: R96, puzzle: Same State NG 1)", "Discrete Label": "class 1"}
{"Primary Sequence": "AGUAGUGUAACAUGAGGAUCACCCAUGUAAGAAGAUGUAACCUAGGAUAUGGAUGAUAUGUUAGACCAGAAGGAGGAUUGUUUA [JR_SSNG3_Sub039] (Eterna round: R96, puzzle: Same State NG 3)", "Discrete Label": "class 1"}

Asked: Decide: apparent KD of MS2 coat protein of GUUACAUGAGGAUCACCCAUGUAUGUGUGGGAGUAAGUGUCUUAGGAUAUCUGUUAUUUAAUUCAAGAGAAGGAAGAUUGUUGU [JMF's solution 46] (Eterna round: R96, puzzle: Same State NG 3) >= 70 nM?
Given back: class 1

Asked: Queued: UUCUCACUGGUAGGAUAUGUAGGAUAUGUACAUGAGGAUCACCCAUGUCAGUUAAUGACAGAAGGAUAGAAGGACCACAUCUCU [pwkr ssNG2 2FMN 1F5s.1] (Eterna round: R96, puzzle: Same State NG 2)
Given back: class 1

Asked: Queued: AAAGUGGGCUUAUUUGGAUUCUCGUCUGGACAUGAGGAUCACCCAUGUAGGCGCUUGGUCUGAGACUAAGCAGCCGA [Didiinso] (Eterna round: R96, puzzle: Sensor for hsa-mir-208a)
Given back: class 1
